// provenance: the supplement of paper PMC10307832

Tested on: NCI-H460
EXPERIMENTAL PROTOCOL: relative viability (nuclei count vs DMSO), 5 days (fraction); higher = more cells survive
SETTINGS: first compound 6.325 µM
TEST READOUT: relative viability
// print number alone

Some solved entries appear below for comparison.
{"MOLECULE": "COCC1(CO)C(=O)C2CCN1CC2 (stereo not given) [PRIMA-1MET] + Cc1nc(Nc2ncc(C(=O)Nc3c(C)cccc3Cl)s2)cc(N2CCN(CCO)CC2)n1 [Dasatinib] (partner 0.075 µM)", "relative viability": 0.518}
{"MOLECULE": "COCC1(CO)C(=O)C2CCN1CC2 (stereo not given) [PRIMA-1MET] + CS(=O)(=O)CCNCc1ccc(-c2ccc3ncnc(Nc4ccc(OCc5cccc(F)c5)c(Cl)c4)c3c2)o1 [Lapatinib] (partner 2 µM)", "relative viability": 0.607}
{"MOLECULE": "COCC1(CO)C(=O)C2CCN1CC2 (stereo not given) [PRIMA-1MET] + CC(=O)c1c(C)c2cnc(Nc3ccc(N4CCNCC4)cn3)nc2n(C2CCCC2)c1=O [Palbociclib] (partner 0.5 µM)", "relative viability": 0.114}

Quick check: relative viability of COCC1(CO)C(=O)C2CCN1CC2 (stereo not given) [PRIMA-1MET] + Cc1cc(Nc2cc(N3CCN(C)CC3)nc(Sc3ccc(NC(=O)C4CC4)cc3)n2)n[nH]1 [Tozasertib] (partner 0.1 µM) ?
0.5

Returns the measured relative viability for the input molecule. Input: COCC1(CO)C(=O)C2CCN1CC2 (stereo not given) [PRIMA-1MET] + COc1cccc2cc(-c3nc([C@H]4CC[C@H](C(=O)O)CC4)n4ncnc(N)c34)[nH]c12 [OSI-027] (partner 0.5 µM)
0.323
